Data provenance: PubChem BioAssay (NCI)

What growth inhibition was measured for each of the following?
- TEST NAME: NCI Yeast Anticancer Drug Screen. Data for the rad18 strain (AID 177)
- PROTOCOL CONDITIONS: S. cerevisiae rad18 mutant growth inhibition; at 1.2 µM; active compounds read high
Compounds without any hit were thinned out: in the full panel of roughly 79,000, 15% have a hit.
Return type: number; implicit unit %.

CC(C)(C)c1ccc(NS(=O)(=O)c2ccc(N)cc2)cc1 has a reported growth inhibition of 3

Cc1ccc(Cl)cc1NC(=O)OCCN(C)C(=O)Nc1cc(Cl)ccc1C has a reported growth inhibition of -27

O=C(O)c1ccc(N2C(=O)C=CC2=O)cc1 has a reported growth inhibition of 1

O=C1C=C(Cl)C(=O)C(c2ccc(Cl)cc2)=C1 has a reported growth inhibition of 16

CCCCCCCCCCCC(O)S(=O)(=O)O (stereo not given) has a reported growth inhibition of 1

COc1ccc(NC(=O)CC2SC(=Nc3ccccc3C)NC2=O)c([N+](=O)[O-])c1 (stereo not given) has a reported growth inhibition of -1

NNC(=O)CCc1cc2ccccc2c2ccccc12 has a reported growth inhibition of -6

CC(/C=C/c1ccccc1)=N\NC(N)=S has a reported growth inhibition of 9

c1ccc2c(OCC3CO3)cccc2c1 (stereo not given) has a reported growth inhibition of 18

CCCCCCCCCCCC1=NCCO1 has a reported growth inhibition of 4

CC12C(=O)OC(=O)C(c3ccccc31)c1ccccc12 has a reported growth inhibition of -8

CCN(CC)Cc1cc(Nc2c3ccccc3nc3c2[nH]c2ccccc23)cc(CN(CC)CC)c1O has a reported growth inhibition of 16

CC(C)(C)C1=CC(=CC=C2C=CN(CCCCCCCCCCCO)C=C2)C=C(C(C)(C)C)C1=O has a reported growth inhibition of -4

Nc1n[n+]([O-])c2ccc(Cl)cc2[n+]1[O-] has a reported growth inhibition of 66

OC(/C=C/c1ccccc1)(Cc1cc(-c2ccccc2)n[nH]1)c1ccccc1 (stereo not given) has a reported growth inhibition of 12

O=C(O)CCCC1CCCc2c1ccc1ccccc21 (stereo not given) has a reported growth inhibition of -2

COC(C(O)CO)C(O)C(O)C(=O)NNc1ccccc1 (stereo not given) has a reported growth inhibition of 17

Cc1cc2c(cc1C)[n+]([O-])c(-c1nc3ccccc3s1)c(N)[n+]2[O-] has a reported growth inhibition of 4

CN(C)c1nc(=Nc2cccc(Cl)c2)ss1 has a reported growth inhibition of 12

CN(C)C=NC1CCC(C(C)(C)C)CC1 (stereo not given) has a reported growth inhibition of -3

O=c1c2ccccc2nc(-c2ccccc2)n1O has a reported growth inhibition of 39

COc1cccc(/C=N/C(/N=C/c2cccc(OC)c2O)c2cccc(OC)c2O)c1O has a reported growth inhibition of -1

CN(C)N=Nc1ccccc1C(=O)NC#N has a reported growth inhibition of 12

c1ccc(CCN2CCc3ccccc3C2)cc1 has a reported growth inhibition of 0

Oc1[nH]c2ccccc2c1N=NC(=S)N1CCCCC1 has a reported growth inhibition of 5

CCOC(=O)[C@H]1Nc2ccc(OC)cc2C2c3ccccc3CC21 (stereo not given in full) has a reported growth inhibition of 1

Cn1c(=O)c2c(nc(N)n2C2OC(CO)C(O)C2O)n(C)c1=O (stereo not given) has a reported growth inhibition of -1

CC(C)CCCC(C)C1CCC2C3CCC4=CC(=O)/C(=C\O)CC4(C)C3CCC12C (stereo not given) has a reported growth inhibition of 3

CC1OC(O[C@H]2/C=C/C=C/C=C/C=C/C=C/C=C/C=C/[C@H](C)[C@@H](O)[C@@H](C)[C@H](C)OC(=O)C[C@H](O)C[C@H](O)CC[C@@H](O)[C@H](O)C[C@H](O)C[C@]3(O)C[C@H](O)[C@@H](C(=O)O)[C@H](C2)O3)C(O)C(N)C1O (stereo not given in full) has a reported growth inhibition of -20

O=C(NO)Nc1cc(Cl)cc(Cl)c1 has a reported growth inhibition of 3
